Would you mind telling me the reported pIC50 of each entry?
- SYSTEM: TRABID(245-697) (Homo sapiens, UniProt Q9UGI0)
- Sequence (Q9UGI0 245-697): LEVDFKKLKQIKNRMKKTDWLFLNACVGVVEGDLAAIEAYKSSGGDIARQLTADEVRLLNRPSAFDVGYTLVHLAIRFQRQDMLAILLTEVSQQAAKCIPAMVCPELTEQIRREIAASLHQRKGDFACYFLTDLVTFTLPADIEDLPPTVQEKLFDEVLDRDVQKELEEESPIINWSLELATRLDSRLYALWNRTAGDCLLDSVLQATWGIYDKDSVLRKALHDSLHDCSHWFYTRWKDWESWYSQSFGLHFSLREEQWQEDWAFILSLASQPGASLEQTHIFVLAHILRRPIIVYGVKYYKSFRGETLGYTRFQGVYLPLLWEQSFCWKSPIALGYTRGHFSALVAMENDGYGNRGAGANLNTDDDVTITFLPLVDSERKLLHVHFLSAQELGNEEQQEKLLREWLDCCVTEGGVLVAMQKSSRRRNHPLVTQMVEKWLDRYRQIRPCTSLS
Give bare numbers, as −log10 of the molar value.

The cases that follow already have their pIC50 on record.
// query Entry N#CN[C@H]1[C@@H]2CN(C(=O)c3csc(-c4ccc(Cl)cc4Cl)n3)C[C@@H]21 [Compound 26] has what pIC50?
// result 5.34

// query Looking for the measured pIC50 of COc1cccc(-c2ncc(NC(=O)[C@@H](C)CCNC#N)s2)c1 [Compound 6] , can you help?
// result 6.02

// query For the compound N#CNC[C@H]1CCN(C(=O)c2csc(-c3ccc(Cl)cc3Cl)n2)C1 [Compound 11] , what pIC50 is on record?
// result 5.94

// query So what's the measured pIC50 for this one? COc1ccc(-c2cc(C(=O)N3CC[C@@]4(CC4NC#N)C3)on2)cc1 (some centres unmarked) [Compound 34]
// result 5.25

// query // lookup pIC50 for N#CN[C@H]1[C@@H]2CN(C(=O)c3nc(-c4ccccc4)cs3)C[C@@H]21 [Compound 25]
// result 5.36

Working through the 3 compounds below one at a time, give pIC50 for each.
1. N#CNC[C@@H]1CCN(C(=O)c2csc(-c3ccccc3Oc3ccccc3)n2)C1 [Compound 1]
2. N#CNC[C@H]1CCN(C(=O)c2nc(-c3ccccc3)cs2)C1 [Compound 46]
3. N#CNCC1CN(C(=O)c2csc(-c3ccc(Cl)cc3Cl)n2)C1 [Compound 29]

// result
6.85
5.07
5.29

// input: 3 compounds below; output: pIC50 for each
1. COc1cccc(-c2ncc(NC(=O)[C@H](C)CCNC#N)s2)c1 [Compound 4]
2. COc1ccc(-c2cc(C(=O)N(C)CCCNC#N)on2)cc1 [Compound 41]
3. COc1ccccc1-c1nc(C(=O)N2CC[C@@H](CNC#N)C2)cs1 [Compound 12]

// result
[6.07, 5.11, 5.90]

###

Give pIC50 for every item shown.
- SYSTEM: TRABID(245-697) (Homo sapiens, UniProt Q9UGI0)
One number for each entry, as −log10 of the molar value.

These recorded examples may help you get a feel for the data.
// query For the compound shown here, C[C@@H](CNC#N)C(=O)Nc1cc(-c2ccc(-c3cnn(C)c3)cc2)no1 [Compound 19] , give the reported pIC50.
// result 5.59

// query Field request: pIC50 | item: COc1cccc(-c2ncc(NC(=O)CCCNC#N)s2)c1 [Compound 3]
// result 6.13

// query Quick one: pIC50 for N#CNC[C@H]1C[C@H](NC(=O)c2cnc(-c3ccccc3)s2)C1 [Compound 16] ?
// result 5.80

// query So what's the measured pIC50 for this one? N#CNC1CC2(CCN(C(=O)c3csc(-c4ccc(Cl)cc4Cl)n3)CC2)C1 [Compound 44]
// result 5.10

// query pIC50 value for entry COc1ccccc1-c1ncc(NC(=O)CCCNC#N)s1 [Compound 10]
// result 5.94

Each compound below has a recorded value; state its pIC50.
1. COc1ccccc1-c1nc(C(=O)N2CC[C@H](CNC#N)C2)cs1 [Compound 14]
2. CN(C(=O)c1cnc(-c2ccccc2)s1)[C@H]1C[C@H](CNC#N)C1 (single isomer, unassigned) [Compound 20]
3. N#CNC1C[C@@]12CCN(C(=O)c1nc(-c3ccccc3)cs1)C2 (stereo partly drawn) [Compound 36]

// result
5.89
5.53
5.19

###

- SYSTEM: TRABID(245-697) (Homo sapiens)
- Sequence (Q9UGI0 245-697): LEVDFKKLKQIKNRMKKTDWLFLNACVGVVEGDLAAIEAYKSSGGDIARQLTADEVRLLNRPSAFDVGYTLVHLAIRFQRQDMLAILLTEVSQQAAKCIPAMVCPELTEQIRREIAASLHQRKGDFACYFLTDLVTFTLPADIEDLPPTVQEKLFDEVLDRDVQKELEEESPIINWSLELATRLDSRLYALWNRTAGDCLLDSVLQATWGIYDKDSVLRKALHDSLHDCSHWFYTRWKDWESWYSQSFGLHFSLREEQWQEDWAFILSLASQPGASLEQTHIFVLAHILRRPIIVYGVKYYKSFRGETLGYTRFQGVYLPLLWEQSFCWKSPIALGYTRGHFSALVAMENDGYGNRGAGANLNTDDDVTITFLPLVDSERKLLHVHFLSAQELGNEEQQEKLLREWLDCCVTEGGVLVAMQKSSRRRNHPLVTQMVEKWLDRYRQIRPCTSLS
Please respond with reported log10 of IC50 for every item in the list.
Note: values are log10 of IC50 expressed in nM.

Here's what some known entries look like.
// query Reported log10 of IC50 for CN(CCCNC#N)C(=O)c1nc(-c2ccccc2)cs1 : what is it?
// result 3.94

// query Need log10 of IC50, item COc1cccc(-c2cc(C(=O)N3CC[C@@]4(CC4NC#N)C3)on2)c1 (stereo partly drawn)
// result 2.72

// query Any idea what log10 of IC50 was measured for N#CNCCCC(=O)Nc1cnc(-c2ccccc2Oc2ccccc2)s1 ?
// result 3.05

// each compound listed below needs its log10 of IC50
1. N#CNC[C@H]1CCN(C(=O)c2csc(-c3ccccc3Oc3ccccc3)n2)C1
2. Cn1cc(-c2ccc(-c3cc(NC(=O)CCNC#N)on3)cc2)cn1
3. N#CNC1C[C@@]12CCN(C(=O)c1csc(-c3ccc(Cl)cc3Cl)n1)C2 (stereo partly drawn)

// result
1: 2.64; 2: 3.14; 3: 3.03

Hey, quick one: what's log10 of IC50 for each of these?
1. Cn1cc(-c2ccc(-c3cc(NC(=O)CCCNC#N)on3)cc2)cn1
2. N#CN[C@H]1CC[C@@H](NC(=O)c2cccc(Oc3ccccc3)c2)C1
3. COc1cccc(-c2cc(C(=O)N3CC4CC4(CNC#N)C3)on2)c1 (stereo not drawn)

// result
1: 3.03; 2: 3.86; 3: 3.53

###

- SYSTEM: TRABID(245-697) (Homo sapiens)
OBSERVATION TYPE: pIC50
Give bare numbers, as −log10 of the molar value.

Illustrative cases are given below, each with its answer.
// query Form field: pIC50 recorded for N#CNC[C@H]1CN(C(=O)c2csc(-c3ccc(Cl)cc3Cl)n2)CCO1 with TRABID(245-697) (Homo sapiens) (enter value)
// result 5.40

// query Form field - read-out: pIC50; system: TRABID(245-697) (Homo sapiens); submitted item: N#CN[C@H]1C[C@]2(CCN(C(=O)c3cc(-c4ccccn4)no3)C2)C1 (single isomer, unassigned)
// result 5.09

// query Query pIC50 on TRABID(245-697) (Homo sapiens) for N#CNCC12CC1CN(C(=O)c1csc(-c3ccc(Cl)cc3Cl)n1)C2 (stereo not shown)
// result 5.79

// query Query pIC50 on TRABID(245-697) (Homo sapiens) for COc1cccc(-c2ncc(NC(=O)[C@H](C)CNC#N)s2)c1
// result 5.10

// query Provide value of pIC50 for this record tested with TRABID(245-697) (Homo sapiens): COc1cccc(-c2ncc(C(=O)NCCCNC#N)s2)c1
// result 6.06

// query Kindly state the measured pIC50 obtained for Cn1cc(-c2ccc(-c3cc(C(=O)N4CCC5(CC(NC#N)C5)C4)on3)cc2)cn1 (stereo not shown) with TRABID(245-697) (Homo sapiens).
// result 5.90

// query Item COc1ccc(-c2cc(C(=O)N3CC4CC4(CNC#N)C3)on2)cc1 (stereo not shown) with TRABID(245-697) (Homo sapiens) - pIC50?
// result 5.28

// query Notebook: pull reported pIC50 for TRABID(245-697) (Homo sapiens), entry N#CNC[C@H]1CCCN1C(=O)c1csc(-c2ccc(Cl)cc2Cl)n1
// result 5.18

// query Report pIC50 for C[C@H](CNC#N)C(=O)Nc1cc(-c2ccc(-c3cnn(C)c3)cc2)no1 tested on TRABID(245-697) (Homo sapiens).
// result 5.78

New cases:
// query Hello, I am looking for reported pIC50 with TRABID(245-697) (Homo sapiens) for N#CNC[C@@H]1CCCN(C(=O)c2csc(-c3ccc(Cl)cc3Cl)n2)C1 . Could you help?
// result 5.28
